Origin of values: patent US20090227575A1

target: Human mTOR (Homo sapiens, UniProt P42345); test: mTOR kinase assay (DELFIA format, purified enzyme); type: biochemical; design: FLAG; conditions: read-out: TOR Kinase IC50
Rule: measured IC50 below 2000 nM gets true; anything equal to or greater than 2000 nM gets false.

# compound, assigned class
data = [
    ("CC(C)N1CCC(S(=O)(=O)n2ccc3c4nc(-c5ccc(NC(=O)Nc6ccncc6)cc5)nc(N5CCOCC5)c4ccc32)CC1 [Example 65]", "true"),
    ("CCCNC(=O)Nc1cccc(-c2nc(N3CCOCC3)c3ccc4c(ccn4C)c3n2)c1 [Example 127]", "true"),
    ("OCc1cccc(-c2nc(N3CCOCC3)c3ccc4[nH]ccc4c3n2)c1 [Example 57]", "true"),
    ("CN(C)S(=O)(=O)Nc1cccc(-c2nc(N3CCOCC3)c3ccc4c(ccn4C)c3n2)c1 [Example 55]", "true"),
    ("CC(=O)NCc1cccc(-c2nc(N3CCOCC3)c3ccc4c(ccn4C)c3n2)c1 [Example 44]", "false"),
    ("CN(C)CCn1ccc2c3nc(-c4cnc(N)nc4)nc(N4CCOCC4)c3ccc21 [Example 34]", "true"),
    ("Cn1ccc2c3nc(-c4ccc(NC(=O)NCCc5ccncc5)cc4)nc(N4CCOCC4)c3ccc21 [Example 120]", "true"),
    ("Cn1ccc2c3nc(-c4cccc(C(O)c5ccccc5)c4)nc(N4CCOCC4)c3ccc21 (stereo not shown) [Example 29]", "false"),
    ("Cn1ccc2c3nc(-c4cnc(N)nc4)nc(N4CCOCC4)c3ccc21 [Example 43]", "true"),
    ("Cn1ccc2c3nc(-c4ccc(NC(=O)NCc5ccco5)cc4)nc(N4CCOCC4)c3ccc21 [Example 7]", "true"),
    ("O=S(=O)(c1ccccc1)n1ccc2c3nc(-c4cccc(CO)c4)nc(N4CCOCC4)c3ccc21 [Example 70]", "false"),
    ("CC(=O)c1ccc(NC(=O)Nc2ccc(-c3nc(N4CCOCC4)c4ccc5c(ccn5C)c4n3)cc2)cc1 [Example 115]", "true"),
    ("Cn1ccc2c3nc(-c4ccc(N)cc4)nc(N4CCOCC4)c3ccc21 [Example 1]", "true"),
]
